# study-system: BCL2 WT (Homo sapiens (Human))
# Sequence (P10415 other isoform, or with tags, fused parts or gaps): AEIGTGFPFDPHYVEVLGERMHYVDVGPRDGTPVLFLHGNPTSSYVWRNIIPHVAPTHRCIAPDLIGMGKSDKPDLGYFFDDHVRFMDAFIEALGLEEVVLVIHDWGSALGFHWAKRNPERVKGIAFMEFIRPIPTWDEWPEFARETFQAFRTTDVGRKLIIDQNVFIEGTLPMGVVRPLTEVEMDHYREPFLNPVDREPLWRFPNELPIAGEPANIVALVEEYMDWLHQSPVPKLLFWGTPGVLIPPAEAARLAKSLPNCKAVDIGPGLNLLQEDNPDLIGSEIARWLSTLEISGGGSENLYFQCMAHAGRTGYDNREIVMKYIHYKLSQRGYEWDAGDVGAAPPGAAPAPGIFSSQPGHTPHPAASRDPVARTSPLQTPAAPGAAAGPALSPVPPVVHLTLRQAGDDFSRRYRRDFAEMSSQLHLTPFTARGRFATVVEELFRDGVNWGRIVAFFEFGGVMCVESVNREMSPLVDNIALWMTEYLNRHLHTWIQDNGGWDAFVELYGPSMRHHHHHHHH
# assay-text: TR-FRET competitive binding assay, BCL2 WT
# assay-setup: Ki determined from IC50, read-out: TR_FRET EKI_Bcl2 WT
property-label: pKi
pKi is a log-scale quantity: -log10 of the concentration expressed in molar.

Please review the following examples before continuing.
Item: Cc1c(C(=O)N(c2ccc(O)cc2)c2cc(C#N)n(C(F)F)c2C)cc(-c2cc3c(cc2C(=O)N2Cc4ccccc4C[C@H]2CN2CCCCC2)CN(C(=O)Cc2ccc(OCCN4CCOCC4)cc2)CC3)n1C [Example 77] | System: BCL2 WT (Homo sapiens (Human)) | pKi: 10.22

Item: Cc1c(N(C(=O)c2cc(-c3cc4c(cc3C(=O)N3Cc5ccccc5C[C@H]3C)CN(C(=O)Cc3ccc(OCCN5CCOC(C)C5)cc3F)CC4)n(C)c2C)c2ccc(O)cc2)cc(C#N)n1C (single isomer, unassigned) [Example 75] | System: BCL2 WT (Homo sapiens (Human)) | pKi: 9.89

Item: Cc1c(C(=O)N(c2ccccc2)c2cnn(C(F)F)c2)cc(-c2cc3c(cc2C(=O)N2Cc4ccccc4C[C@H]2CN2CC4(CCC4)C2)CN(C(=O)Cc2ccc(OCCN4CCOCC4)cc2)CC3)n1C [Example 206] | System: BCL2 WT (Homo sapiens (Human)) | pKi: 10.85

***
Item: Cc1c(N(C(=O)c2cc(-c3cc4c(cc3C(=O)N3Cc5ccccc5C[C@H]3C)CN(C(=O)Cc3ccccc3)CC4)n(C)c2C)c2ccc(O)cc2F)cc(C#N)n1C [Example 13] | System: BCL2 WT (Homo sapiens (Human)) | pKi: 9.00

Item: Cc1c(C(=O)N(c2ccccc2)c2cnn(C)c2)cc(-c2cc3c(cc2C(=O)N2Cc4ccccc4C[C@H]2C)CN(C(=O)Cc2cccc(C4CCN(C)CC4)c2)CC3)n1C [Example 216] | System: BCL2 WT (Homo sapiens (Human)) | pKi: 10.30
